Below, each entry is listed alongside its reported first-order primary biodegradation rate constant k.
# experimentSummary: first-order primary biodegradation rate constant k (sorption-corrected, fDis-corrected) (d-1); higher = faster biodegradation
# conditionDescription: river segment: Greece (EL) A_Contam; incubation temperature 19 °C
Lab note: jot down the number only; don't add units.

compound: CC(=O)NC[C@H]1CN(c2ccc(N3CCOCC3)c(F)c2)C(=O)O1
observedMeasurement: 0.285
--
compound: CC(C)NCC(O)COc1ccc(CC(N)=O)cc1 (configuration not stated)
observedMeasurement: 0.39
--
compound: CC(C)N(C(=O)COc1nnc(C(F)(F)F)s1)c1ccc(F)cc1
observedMeasurement: 0.0323
--
compound: CCCCC(=O)N(Cc1ccc(-c2ccccc2-c2nnn[nH]2)cc1)[C@H](C(=O)O)C(C)C
observedMeasurement: 0.42
--
compound: CC(C)N(C(=O)CCl)c1ccccc1
observedMeasurement: 0.575
--
compound: Cc1cc(NS(=O)(=O)c2ccc(N)cc2)no1
observedMeasurement: 0.0196

For the compound shown here, `Cc1ccc(NC(=O)N(C)C)cc1Cl` , give the reported first-order primary biodegradation rate constant k. 0.306

Return reported first-order primary biodegradation rate constant k; argument: `Cn1c(=O)c2c(ncn2C)n(C)c1=O` 0.894
